test system: barnyardgrass (Echinochloa crus-galli); test: Test A postemergence, barnyardgrass; format: in vivo; details: 125 g ai/ha, 0 to 100 scale (0 no effect, 100 complete control)
outcome measure: Plant response rating, Barnyardgrass
Enter the number alone.

Some entries whose results are on file:
[Q] What Plant response rating, Barnyardgrass value was documented for this molecule, CC1(C)CC([S+]([O-])Cc2c(C(F)(F)F)nc3ccon3c2=O)=NO1 (stereo not drawn) ?
[A] 40

[Q] Consider the molecule shown here: CC1(C)CC(S(=O)(=O)Cc2c(C(F)(F)F)nc3n(c2=O)CCO3)=NO1 What is its recorded Plant response rating, Barnyardgrass?
[A] 70

[Q] Please report the recorded Plant response rating, Barnyardgrass for CC1(C)CC(S(=O)(=O)Cc2c(C(F)(F)F)nc3n(c2=O)CCC3)=NO1 .
[A] 80

[Q] // query Plant response rating, Barnyardgrass value for entry CC1(C)CC(S(=O)(=O)Cc2c(C(F)(F)F)nc3n(c2=O)CCCO3)=NO1
[A] 70

[Q] Endpoint output: Plant response rating, Barnyardgrass of CC1(C)CC([S+]([O-])Cc2c(C(F)(F)C(F)(F)F)nc3n(c2=O)CCC3)=NO1 (stereo not drawn) . Value?
[A] 40

[Q] Item under review: CCn1c(=O)c(C[S+]([O-])C2=NOC(C)(C)C2)nc2cccnc21 (stereo not drawn) . Reported Plant response rating, Barnyardgrass?
[A] 20

Further cases:
[Q] Plant response rating, Barnyardgrass lookup needed for CC1(C)CC(S(=O)(=O)Cc2c(C(F)(F)Cl)nc3n(c2=O)CCC3)=NO1 , thanks.
[A] 80

[Q] # input molecule: CC1(C)CC(S(=O)(=O)Cc2c(C(F)(F)F)nc3n(c2=O)CCCC3)=NO1 ; wanted: its Plant response rating, Barnyardgrass
[A] 80

[Q] State the recorded Plant response rating, Barnyardgrass for this entry: CCn1c(=O)c(C[S+]([O-])C2=NOC(C)(C)C2)nc2ccccc21 (stereo not drawn)
[A] 10

[Q] Given the entry CC1(C)CC(S(=O)(=O)Cc2c(C(F)(F)F)nc3n(c2=O)CCS3)=NO1 , report its measured Plant response rating, Barnyardgrass.
[A] 70

[Q] For CC1(C)CC(S(=O)(=O)Cc2c(C(F)(F)C(F)(F)F)nc3n(c2=O)CCCC3)=NO1 , what is its reported Plant response rating, Barnyardgrass?
[A] 70

[Q] So what's the measured Plant response rating, Barnyardgrass for this one? Cn1c(=O)c(CS(=O)(=O)C2=NOC(C)(C)C2)c(C(F)(F)F)c2ccccc21
[A] 0

###

tested on: large crabgrass (Digitaria sanguinalis); test: Test A preemergence, large crabgrass; assay type: in vivo; settings: 125 g ai/ha, 0 to 100 scale (0 no effect, 100 complete control)
// values below are reported Plant response rating, Crabgrass, Large
Answer with the value's number alone.

[Q] May I ask what Plant response rating, Crabgrass, Large has been recorded for CC1(C)CC([S+]([O-])Cc2c(C(F)(F)C(F)(F)F)nc3n(c2=O)CCCS3)=NO1 (stereo not drawn) [Compound 40] ?
[A] 0

[Q] Suppose we examine the compound Cc1cc2nc(C(F)(F)F)c(CS(=O)(=O)C3=NOC(C)(C)C3)c(=O)n2o1 [Compound 53] ; what Plant response rating, Crabgrass, Large value has been reported?
[A] 30

Further cases:
[Q] Item Cn1c(=O)c(C[S+]([O-])C2=NOC(C)(C)C2)nc2ccccc21 (stereo not drawn) [Compound 24] has what recorded Plant response rating, Crabgrass, Large?
[A] 0

###

# Plant response rating, Corn listing for each entry below
tested on: corn (Zea mays); assay: Test A postemergence, corn; assay type: in vivo; conditions: 500 g ai/ha, 0 to 100 scale (0 no effect, 100 complete control)
Form: value (number only, do not type unit).

The examples below pair each entry with its known result.
[Q] // lookup Plant response rating, Corn for CC1(C)CC(S(=O)(=O)Cc2c(C(F)(F)F)nc3n(c2=O)CCS3)=NO1
[A] 0

[Q] Consider the compound shown here: CC1(C)CC([S+]([O-])Cc2c(C(F)(F)Cl)nc3n(c2=O)CCC3)=NO1 (centres unmarked) What is its recorded Plant response rating, Corn?
[A] 0

[Q] Any idea what Plant response rating, Corn was measured for CC1(C)CC(S(=O)(=O)Cc2c(C(F)(F)F)nc3n(c2=O)CCCO3)=NO1 ?
[A] 50

[Q] I would be grateful if you could share the reported Plant response rating, Corn for CCn1c(=O)c(C[S+]([O-])C2=NOC(C)(C)C2)nc2cccnc21 (centres unmarked) .
[A] 0

[Q] Recorded Plant response rating, Corn for CC1(C)CC(S(=O)(=O)Cc2c(C(F)(F)F)nc3n(c2=O)CCC3)=NO1 , please?
[A] 50

---
[Q] // Plant response rating, Corn lookup, key: CC1(C)CC([S+]([O-])Cc2c(C(F)(F)F)nc3ccon3c2=O)=NO1 (centres unmarked)
[A] 40

[Q] Which Plant response rating, Corn is listed for CC1(C)CC([S+]([O-])Cc2c(C(F)(F)C(F)(F)F)nc3n(c2=O)CCCC3)=NO1 (centres unmarked) ?
[A] 40

[Q] State the recorded Plant response rating, Corn for this entry: CC1(C)CC(S(=O)(=O)Cc2c(C(F)(F)F)nc3cccnn3c2=O)=NO1
[A] 0

[Q] Fill in the blank: the reported Plant response rating, Corn of CC1(C)CC([S+]([O-])Cc2c(C(F)(F)C(F)(F)F)nc3n(c2=O)CCS3)=NO1 (centres unmarked) is ____.
[A] 40

[Q] What measured Plant response rating, Corn goes with CC1(C)CC([S+]([O-])Cc2c(C(F)(F)F)nc3n(c2=O)CCCCC3)=NO1 (centres unmarked) ?
[A] 0

[Q] Give the measured Plant response rating, Corn of CC1(C)CC(S(=O)(=O)Cc2c(C(F)(F)F)nc3cnccn3c2=O)=NO1 .
[A] 0

###

system: large crabgrass (Digitaria sanguinalis); assay: Test A postemergence, large crabgrass; assay type: in vivo; details: 500 g ai/ha, 0 to 100 scale (0 no effect, 100 complete control)
outcome measure: Plant response rating, Crabgrass, Large
Please give only the number in your answer, with no unit.

Here's what some known entries look like.
[Q] Bench note: what Plant response rating, Crabgrass, Large did CC1(C)CC([S+]([O-])Cc2c(C(F)(F)Cl)nc3n(c2=O)CCCC3)=NO1 (stereo not shown) show?
[A] 40

[Q] Which Plant response rating, Crabgrass, Large is listed for CC1(C)CC([S+]([O-])Cc2c(C(F)(F)F)nc3n(c2=O)CCC3)=NO1 (stereo not shown) ?
[A] 70

New cases:
[Q] Look up Plant response rating, Crabgrass, Large: CC1(C)CC([S+]([O-])Cc2c(C(F)(F)F)nc3n(c2=O)CCCCC3)=NO1 (stereo not shown)
[A] 40

[Q] Which measured Plant response rating, Crabgrass, Large value corresponds to CC1(C)CC(S(=O)(=O)Cc2c(C(F)(F)C(F)(F)F)nc3n(c2=O)CCCO3)=NO1 ?
[A] 70

[Q] Given CCn1c(=O)c(CS(=O)(=O)C2=NOC(C)(C)C2)nc2cccnc21 , state its recorded Plant response rating, Crabgrass, Large.
[A] 40

[Q] I would be grateful if you could share the reported Plant response rating, Crabgrass, Large for CC1(C)CC(S(=O)(=O)Cc2c(C(F)(F)F)nc3cccnn3c2=O)=NO1 .
[A] 70

[Q] // query Plant response rating, Crabgrass, Large value for entry Cn1c(=O)c(CS(=O)(=O)C2=NOC(C)(C)C2)c(C(F)(F)F)c2ccccc21
[A] 70

###

tested on: umbrella sedge (Cyperus difformis); experiment: Test B flooded paddy test, umbrella sedge; assay type: in vivo; conditions: Flood, 250 g ai/ha; scale 0 to 100
outcome measure: Plant response rating, Sedge, Umbrella
Lab note: jot down the number only; don't add units.

[Q] If you can, please state the reported Plant response rating, Sedge, Umbrella value of CCn1c(=O)c(C[S+]([O-])C2=NOC(C)(C)C2)nc2ccccc21 (centres unmarked) [Compound 29] .
[A] 0

[Q] Request the reported Plant response rating, Sedge, Umbrella associated with Cc1cc2nc(C(F)(F)F)c(C[S+]([O-])C3=NOC(C)(C)C3)c(=O)n2o1 (centres unmarked) [Compound 50]
[A] 0

[Q] So what's the measured Plant response rating, Sedge, Umbrella for this one? CC1(C)CC([S+]([O-])Cc2c(C(F)(F)Cl)nc3n(c2=O)CCCS3)=NO1 (centres unmarked) [Compound 36]
[A] 0

[Q] Fill blank: measured Plant response rating, Sedge, Umbrella of the compound CC1(C)CC([S+]([O-])Cc2c(C(F)(F)C(F)(F)F)nc3n(c2=O)CCC3)=NO1 (centres unmarked) [Compound 27] is ____.
[A] 0

[Q] Endpoint output: Plant response rating, Sedge, Umbrella of CC1(C)CC(S(=O)(=O)Cc2c(C(F)(F)F)nc3ccsn3c2=O)=NO1 [Compound 16] . Value?
[A] 40

Now for the compound whose Plant response rating, Sedge, Umbrella we want.
[Q] Item CC1(C)CC(S(=O)(=O)Cc2c(C(F)(F)F)nc3n(c2=O)CCO3)=NO1 [Compound 2] has what recorded Plant response rating, Sedge, Umbrella?
[A] 0

Reference source: patent US20100099561A1
